biological target: Cellular tumor antigen p53 (Homo sapiens); assay: Primary qHTS for small molecule compounds that upregulate eGFP-tagged delta133p53alpha (in C-terminal) cells. (AID 2060324); settings: NCI-H358 delta133p53alpha-eGFP (C-terminal tag), GFP fluorescence imaging, 24 h; series mostly up to 57.5 µM
Results filed as inconclusive are left out. Calls of active or inactive are those of the source. Calls follow the shape of the dose curve; as a rule, active = well fitted activation curve with a large enough effect; inconclusive = small, poorly fitted or top-dose-only effect; inactive = flat fitted curve, though single readings scatter.
Answer with one of the outcomes active, inactive

>  <Compound>
Nc1nc2c(cnn2CCc2ccccc2)c2nc(-c3ccco3)nn12

>  <Assigned Class>
inactive

$$$$
>  <Compound>
NS(=O)(=O)c1cc2c(cc1Cl)NC=NS2(=O)=O

>  <Assigned Class>
inactive

$$$$
>  <Compound>
O=C1OC(=O)C2C3CCC(O3)C12 (stereo unspecified)

>  <Assigned Class>
inactive

$$$$
>  <Compound>
O=C(/C=C/c1ccc(O)cc1)c1ccc(O)cc1O

>  <Assigned Class>
inactive

$$$$
>  <Compound>
O=C1NC(=O)c2cc(Nc3ccccc3)c(Nc3ccccc3)cc21

>  <Assigned Class>
active

$$$$
>  <Compound>
NC(=O)c1ccc2[nH]ccc2c1

>  <Assigned Class>
inactive

$$$$

For Cc1cn[nH]c1 , which call appears in the assay record? inactive

For COc1cccc2c1[C@@H]1CN(CCCCn3c(=O)[nH]c4c(sc5ncc(-c6ccccc6)nc54)c3=O)C[C@@H]1CO2 , which call appears in the assay record? inactive

For CN1[C@@H](CC(=O)c2ccccc2)CCC[C@H]1C[C@H](O)c1ccccc1 , which call appears in the assay record? inactive

For c1ccc(C(NCc2cccnc2)(c2ccccc2)c2ccccc2)cc1 , which call appears in the assay record? inactive

For CN1CCc2cc(Cl)c(O)cc2[C@@H](c2ccccc2)C1 , which call appears in the assay record? inactive

For C(=C\c1ccccc1)/CN1CCN(C(c2ccccc2)c2ccccc2)CC1 , which call appears in the assay record? inactive

For CC1=NS(=O)(=O)c2cc(Cl)ccc2N1 , which call appears in the assay record? inactive

For Nc1ncnc2c1ncn2[C@@H]1O[C@H](COP(=O)(O)OP(=O)(O)OP(=O)(O)OP(=O)(O)OC[C@@H]2O[C@H](n3cnc4c(N)ncnc43)[C@@H](O)[C@H]2O)[C@@H](O)[C@H]1O , which call appears in the assay record? inactive

Values were extracted from PubChem BioAssay (NCATS).
